# Tested on: Human alphaherpesvirus 2
# test_method_notes: Antiviral activity against Herpes simplex virus 2 infected in HEL cells assessed as protection against in virus-induced cytopathogenicity
# Assay type: functional
Can you tell me MIC50 for the items I'm about to list?
Answers are plain numbers, in µg/mL.

NC(=O)c1ncn([C@@H]2O[C@H](CO)[C@@H](O)[C@H]2O)n1 250
O=c1[nH]c(=O)n([C@H]2C[C@H](O)[C@@H](CO)O2)cc1/C=C/Br 10
CCNC(=S)Nc1ccc(NS(C)(=O)=O)c(Oc2ccccc2)c1 120

Now consider the entry below.
Inquiry: Can you look up the measured MIC50 of Nc1nc2c(ncn2COC(CO)CO)c(=O)[nH]1 for me?
Reply text: 0.0064

These entries and their values trace back to ChEMBL document CHEMBL1153581.
